Biological target: Large T antigen (Simian virus 40) (UniProt P03070)
Sequence (P03070 whole entry, looked up): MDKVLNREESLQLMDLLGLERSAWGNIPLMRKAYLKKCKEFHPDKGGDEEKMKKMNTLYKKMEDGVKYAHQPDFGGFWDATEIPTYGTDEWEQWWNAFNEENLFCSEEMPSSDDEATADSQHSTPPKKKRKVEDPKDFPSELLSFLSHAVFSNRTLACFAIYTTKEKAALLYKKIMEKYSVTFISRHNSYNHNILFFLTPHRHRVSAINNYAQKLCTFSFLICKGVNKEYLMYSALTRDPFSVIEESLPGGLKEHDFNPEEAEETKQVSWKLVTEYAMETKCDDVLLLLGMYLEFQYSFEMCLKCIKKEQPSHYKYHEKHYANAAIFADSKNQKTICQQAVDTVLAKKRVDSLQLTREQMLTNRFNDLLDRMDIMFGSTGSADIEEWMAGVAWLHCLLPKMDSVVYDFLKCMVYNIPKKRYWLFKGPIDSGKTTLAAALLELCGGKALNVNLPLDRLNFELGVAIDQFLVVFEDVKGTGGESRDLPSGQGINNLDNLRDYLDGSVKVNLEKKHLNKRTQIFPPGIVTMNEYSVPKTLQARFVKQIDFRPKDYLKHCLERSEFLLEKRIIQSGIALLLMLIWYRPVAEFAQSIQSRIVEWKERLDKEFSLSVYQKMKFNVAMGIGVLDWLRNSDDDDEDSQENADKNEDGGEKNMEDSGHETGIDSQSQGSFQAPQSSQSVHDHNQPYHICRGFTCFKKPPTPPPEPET
Assay: SV40 large T antigen inhibitors, biochemical (AID 1903)
Conditions: SV40 large T antigen ATPase/helicase inhibition assay; at 20 µM; active compounds read high
Among all 310,000 compounds or so, about 1,200 (0.39%) were called active. These entries were drawn from the full list. Entries with a potency or affinity are not part of this list.
MEASURED METRIC: inhibition (%)
State the answer as a number, implicitly in %.

What value of inhibition on Large T antigen (Simian virus 40) (UniProt P03070) does COc1cc2nc(C3CCC3)nc(N3CCN(c4ccccn4)CC3)c2cc1OC have?
3.99

Also need Cc1ccc(S(=O)(=O)NCCCN2CCCC2)cc1 , thanks.
13.3

Also need Cn1c(=O)n(-c2cccc(Cl)c2)c(=O)n1C , thanks.
10.7

Also need COc1ccc(/C=N/NC(=O)CN2CCSCC2)c(OC)c1 , thanks.
17.5

Also need Fc1ccc(-c2nc(-c3cccs3)[nH]c2-c2ccc(F)cc2)cc1 , thanks.
0.16

Also need CN=c1scc(C)n1/N=C/c1ccc(O)c(O)c1O , thanks.
7.3

Also need CC(C)(C)c1ccc(OCC(O)CSc2ncn[nH]2)cc1 (configuration not stated) , thanks.
3.06

Also need CCN1C(=O)C2(C(C(=O)c3ccc(C)o3)=C(O)C(=O)N2CCCN(C)C)c2ccccc21 (configuration not stated) , thanks.
27.5

Also need CN=c1scc(-c2cccs2)n1/N=C/c1ccccc1O , thanks.
6.26

Also need Cc1nnc(C)n1/N=C/c1ccc(O)cc1 , thanks.
-1.45

Also need CCN=c1scc(-c2ccco2)n1/N=C/c1ccc(O)cc1 , thanks.
11.2

Also need CCc1ccc2c(CN3CCOCC3)cc(=O)oc2c1 , thanks.
3.81

----------
Biological target: Large T antigen (Simian virus 40) (UniProt P03070)
Experiment: SV40 large T antigen inhibitors, biochemical (AID 1903)
Conditions: SV40 large T antigen ATPase/helicase inhibition assay; at 20 µM; active compounds read high
Screen size: about 310,000 compounds; about 1,200 (0.39%) were called active. Only a sample is shown. Entries with a potency or affinity are not part of this list.
MEASURED METRIC: inhibition (%)
State the answer as a number, implicitly in %.

# input molecule: CCCN1C(=O)/C(=C/c2ccc(C)o2)NC1=S ; wanted: its inhibition
33.1

Also need CCOc1ccc(N2C(=O)/C(=C/c3ccc(C)o3)N(C)C2=S)cc1 , thanks.
15.8

Also need O=C(CSc1nc2ccccc2n1CCc1ccccc1)N1CCOCC1 , thanks.
11.6

Also need Cc1cccc(N=C2N=C(N)c3ccccc32)c1 , thanks.
0.797

Also need Cc1ccc(/C=C2/NC(=O)N(c3ccccc3)C2=O)o1 , thanks.
22.8

Also need O=C1/C(=C\c2ccco2)NC(=S)N1c1ccccc1 , thanks.
35.2

Also need COc1cccc(CNS(=O)(=O)c2c(C(=O)N3CCCCCC3)c(C)n(C)c2C)c1 , thanks.
2.83

Also need Cn1c(SCC(=O)c2ccc(O)c(O)c2)nnc1-c1ccccc1 , thanks.
27.2

Also need CCc1nnc(NC(=O)COc2ccc(N(C)S(=O)(=O)c3ccc(C)cc3)cc2)s1 , thanks.
4.23

Also need Cc1cc(SCC(=O)c2ccc(O)c(O)c2)nc2ccccc12 , thanks.
35.4

Also need O=c1[nH]n(-c2ccccc2)c(=O)c2ccccc12 , thanks.
3.85

Also need COc1ccc(-c2cc(C(F)(F)F)nc(SCC(=O)NCCCN3CCOCC3)n2)cc1 , thanks.
9.25

Also need Cn1c(N/N=C\c2cccc(O)c2)cc(=O)n(C)c1=O , thanks.
-5.57

Also need Cc1cc(C)nc(SCC(=O)c2ccc(O)c(O)c2)n1 , thanks.
35.3

Also need Cc1cc(C)c2c(=O)[nH]c(SCc3ccccc3C)nc2n1 , thanks.
1.53

Also need COc1ccc(N2C(=O)C3CC(C)=C(C)CC3C2=O)c(OC)c1 (stereo not drawn) , thanks.
11.1

Also need O=C1NC(=S)N/C1=C/c1cccn1-c1ccc([N+](=O)[O-])cc1 , thanks.
5.15

Also need O=C(CSc1nc2ccccc2n1CCc1ccccc1)NC1CC1 , thanks.
5.51

Also need CCOC(=O)CC(NC(=O)CCc1c(C)nc2nc(C)nn2c1C)c1ccc(C)cc1 (stereo not drawn) , thanks.
1.45

Also need C/C(=N\NC(=O)CC#N)c1cc2ccc(O)cc2oc1=O , thanks.
21.8

Also need COc1ccc(/C=N/Nc2cc(=O)n(C)c(=O)n2C)cc1OC , thanks.
9.25

Also need COc1cc(/C=N/Nc2nc(C)cc(=O)[nH]2)ccc1O , thanks.
35.4

Also need O=C(CN1C(=O)C(=O)N(Cc2ccco2)C1=O)c1c[nH]c2ccccc12 , thanks.
28.3

----------
Molecular target: Large T antigen (Simian virus 40) (UniProt P03070)
Test: SV40 large T antigen inhibitors, biochemical (AID 1903)
Conditions: SV40 large T antigen ATPase/helicase inhibition assay; at 20 µM; active compounds read high
In all, about 310,000 compounds went through this assay and about 1,200 (0.39%) were called active. These entries were drawn from the full list. Potency and affinity values are given separately.
Field: inhibition. Provide a value for each of the compounds that follow.
State the answer as a number, implicitly in %.

What value of inhibition on Large T antigen (Simian virus 40) (UniProt P03070) does Cc1ccccc1-n1nc2c(c1NC(=O)c1ccc3c(c1)OCO3)CS(=O)(=O)C2 have?
5.82

Also need Cc1cccc(NCC(=O)c2c(N)n(C)c(=O)n(C)c2=O)c1C , thanks.
4.72

Also need O=C(CSc1nnc(Cc2ccccc2)n1Cc1ccco1)NC12CC3CC(CC(C3)C1)C2 , thanks.
3.4

Also need COC(=O)Cc1c(C)c2ccc(OCC(=O)c3ccc(OC)c(OC)c3)cc2oc1=O , thanks.
14.4

Also need COc1cc(/C=N/NC(=O)C(=O)NCc2ccco2)cc(Br)c1O , thanks.
29.1

Also need CC1(C)Cc2cccc(Oc3cc(NN4CCCCC4)c([N+](=O)[O-])cc3[N+](=O)[O-])c2O1 , thanks.
1.3

Also need c1ccc(-c2ccc3c(c2)NC(C2Nc4cc(-c5ccccc5)ccc4O2)O3)cc1 (configuration not stated) , thanks.
19.8

Also need CCCCOc1ccc(C(=O)NCC(=O)N2CCN(Cc3ccc4c(c3)OCO4)CC2)cc1 , thanks.
14

Also need Oc1c(Br)cc(/C=N/NC(=S)NCC2CCCO2)cc1Br (configuration not stated) , thanks.
27.3

Also need CCCCN(C(=O)c1ccc(S(=O)(=O)N2CCCC2)cc1)C1CCS(=O)(=O)C1 (configuration not stated) , thanks.
2.38

Also need O=C(NCC1CCCO1)C(=O)N/N=C/c1ccc(O)c(Cl)c1 (configuration not stated) , thanks.
30.4

Also need O=C(CN1C(=O)c2ccccc2S1(=O)=O)Nc1ccccc1 , thanks.
18.1

Also need O=C1NC(=S)N/C1=C/c1cc2c(cc1[N+](=O)[O-])OCO2 , thanks.
3

Also need O=C(Nc1ccc(F)cc1)Oc1ccc[nH]c1=O , thanks.
9.86

Also need O=C1CCNc2ccc(-c3ccccc3)cc21 , thanks.
5.5

Also need Cc1ccc(C)c(CSc2nnc(-c3ccccn3)n2N)c1 , thanks.
4.69

Also need O=C(CNC(=O)c1ccco1)N/N=C/c1ccc(O)c([N+](=O)[O-])c1 , thanks.
-0.16

Also need CC12CC3CC(C)(C1)CC(C(O)CN1CCOCC1)(C3)C2 (configuration not stated) , thanks.
3.1

Also need COC(=O)CSC1=NS(=O)(=O)c2ccccc21 , thanks.
5.69

Also need Brc1ccc2[nH]c3c(NCc4ccccn4)ncnc3c2c1 , thanks.
4.68

Also need CC1=CC(=C(C#N)C#N)C=C(C)N1CCN1CCN(C(=O)Nc2ccc(Cl)c(Cl)c2)CC1 , thanks.
3.99

Also need COC(=O)C1=NNC2(C)C(=O)N(c3ccc(C)cc3)C(=O)C12 (configuration not stated) , thanks.
1.54

----------
Target: Large T antigen (Simian virus 40) (UniProt P03070)
Assay: SV40 large T antigen inhibitors, biochemical (AID 1903)
Details: SV40 large T antigen ATPase/helicase inhibition assay; at 20 µM; active compounds read high
In all, about 310,000 compounds went through this assay and about 1,200 (0.39%) were called active. These entries were drawn from the full list. Potency and affinity values are given separately.
Field: inhibition. Provide a value for each of the molecules that follow.
State the answer as a number, implicitly in %.

# input molecule: O=C(CCn1c(=O)oc2ccccc21)N1CCN(c2ccc(F)cc2)CC1 ; wanted: its inhibition
2.5

Also need CCCN(CCC)C(=O)Cc1coc2ccc3ccccc3c12 , thanks.
3.36

Also need CCC(C)NCCC(=O)Nc1ccc(Cl)c(S(=O)(=O)Nc2ccc(Cl)cc2)c1 (stereo not given) , thanks.
7.37

Also need COc1ccccc1N1C(=O)C2CC(C)=C(C)CC2C1=O (stereo not given) , thanks.
6.96

Also need Cc1nc2scc(C)n2c(=O)c1S(=O)(=O)N1CCN(c2ccc([N+](=O)[O-])cc2)CC1 , thanks.
13.7
